Data provenance is patent US20230357364A1.

- measurement-target: SARS-CoV-2 RBD (RBD-2) (SARS-CoV-2)
- test-method-notes: ELISA
observed-property: EC50 (µg/mL)
The response must be a number in µg/mL with no trailing unit.

Please give the measured EC50 for this binder: L6.dP02A05 (antibody, V domains shown, human IgG1) VH: EVQLVQSGAEVKKPGASVKVSCMASGYTFTSYYMHWVRQAPGQGLEWMGIISPSGGGTSYAQKFQGRVTLTRDTSTSTVYMELSSLRSEDTAVYYCARWYDSTGSIDYWGQGTLVTVSS VL: DIVMTQSPSSLSASVGDRVTITCRASQGIRNDLGWYQQKPGKAPKRLIYAASSLQSGVPSRFSGSGSGTEFTLTISSLQPEDFATYYCLQHNSYPILTFGGGTKVEIK 0.025

# EC50 lookup, item L12.bP11C10 (antibody, V domains shown, human IgG1) VH: QVQLVQSGAEVKKPGASVKVSCKASGYIFSGYYMHWVRQAPGQGLEWMGWISPDSGGTNYAQKFQGRVTMTRDTSITTGYMELSGLRSDDTAVYYCARGPRYSGTYFDYWGQGTLVTISS VL: QSALTQPTSVSGSPGQSITISCTGTSSDVGGYNYVSWYQQHPGKAPKLIIYDVSNRPSGVSNRFSGSKSGNTASLTISGLQAEDEADYYCSSYTVSSTQVFGGGTKLTVL 3.12

GET /values?readout=EC50&item= L12.cP09C07 (antibody, V domains shown, human IgG1) VH: QVQLVQSGAEVKKPGASVKVSCKASGYIYSGYFMHWVRQAPGQGLEWMGWISPDSGGANYAQTFQGRVTMTRDTSTTTAHMELSRLRSDDTAVYYCARGPRYSGTHFDYWGQGTLVTVSS VL: QSALTQPASVSGSPGQSLTISCTGTSSDVGGYNYVSWYQQHPDKAPKLMIYDVNNRPSGVSNRFSGSKSGSTASLTISGLQAEDEADYYCSSYAGSSTQVFGGGTKLIVL 0.16
